Target: T1, human CD73 ecto-domain recombinant protein (huCD73) (human, UniProt P21589 27-547)
T1 construct: also called soluble huCD73; soluble recombinant CD73
T1 sequence: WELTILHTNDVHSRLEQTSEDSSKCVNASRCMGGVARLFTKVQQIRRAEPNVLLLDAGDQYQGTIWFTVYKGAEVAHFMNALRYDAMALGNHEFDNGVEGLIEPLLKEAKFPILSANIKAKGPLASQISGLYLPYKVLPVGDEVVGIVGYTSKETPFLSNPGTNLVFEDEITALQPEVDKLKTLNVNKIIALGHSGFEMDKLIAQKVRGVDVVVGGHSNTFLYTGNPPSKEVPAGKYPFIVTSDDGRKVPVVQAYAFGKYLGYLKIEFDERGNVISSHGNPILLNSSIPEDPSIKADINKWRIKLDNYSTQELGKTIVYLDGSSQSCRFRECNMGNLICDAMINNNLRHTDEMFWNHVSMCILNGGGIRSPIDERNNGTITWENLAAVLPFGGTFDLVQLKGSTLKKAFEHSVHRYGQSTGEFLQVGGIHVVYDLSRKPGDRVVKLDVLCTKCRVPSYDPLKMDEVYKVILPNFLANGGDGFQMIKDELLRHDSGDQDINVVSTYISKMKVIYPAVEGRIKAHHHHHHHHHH
Test: indirect ELISA, plate coated with 1 ug/ml huCD73 recombinant protein, HRP-labelled secondary antibody, RFU
recorded.metric: EC50 (read off the curve)

# annotated cases, reported EC50 (read off the curve) shown
{"binder": "JB94H3L3 (antibody, human IgG1, kappa, V domains shown, Humanized antibody of the 94 clone, human IgG1 / kappa) VH: QVQLQQSGAEVKKPGASVKLSCKASGYTFTSYWMHWVRQRPGQGLEWIGYINPSSGYTKSNQKFKDRATLTADTSTSTAYMELSSLRSEDTAVYYCGRWLLSAWFAYWGQGTLVTVSS VL: DIQMTQSPSSLSASVGDRVTITCKASQDINTYLSWFQQKPGKSPKSLIYRSNILVDGVPSRFSGSGSGQDYTLTISSLQPEDFAIYYCLQYDDFPYTFGQGTKLEIKR", "EC50 (read off the curve)": "~0.03 µg/mL"}
{"binder": "JB24H2L1 (antibody, human IgG1, kappa, V domains shown, Humanized antibody of JB24Chi, human IgG1 / kappa) VH: QVQLVQSGAEVKKPGASVKMSCKASGYTFTDYNMHWVRQSPGKSLEWIGYIKPHNAGTTYNPKFEGRATLTVDTSASTAYMELSSLRSEDTAVYYCVRSDFLYWYFDVWGQGTTVTVSS VL: DIQMTQSPSSLSASVGDRVTITCTASSSVSSSYLHWYQQKPGKAPKLLIYSTSNLASGVPSRFSGSGSGTDFTLTISSLQPEDFATYYCHQYHRSPLTFGAGTKLEIKR", "EC50 (read off the curve)": "~0.2 µg/mL"}

# ---- query binder ----
Query block: Provide EC50 (read off the curve) value for the following binder: JB94H2L1 (antibody, human IgG1, kappa, V domains shown, Humanized antibody of the 94 clone, human IgG1 / kappa) VH: QVQLVQSGAEVKKPGASVKVSCKASGYTFTSYWMHWVRQRPGQGLEWMGYINPSSGYTKSNQKFKDRVTLTADTSTSTAYMELSSLRSEDTAVYYCGRWLLSAWFAYWGQGTLVTVSS VL: DIQMTQSPSSLSASVGDRVTITCKASQDINTYLSWFQQKPGKAPKSLIYRSNILVDGVPSRFSGSGSGQDFTLTISSLQPEDFAIYYCLQYDDFPYTFGQGTKLEIKR
Result block: ~0.02 µg/mL

# credit: patent US20220064322A1
